Target: Gab2 (Homo sapiens)
Assay: flow
pKd: −log10 of the molar value.

binder: SHP2 N-SH2, Q06124 (protein) WFHPNITGVEAENLLLTRGVDGSFLARPSKSNPGDFTLSVRRNGGVTHIKIQNTGDYYDLYGGEKFATLAELVQYYMEHHGQLKEKNGDVIELKYPL
pKd: 7.15
--
binder: SHP2 N-SH2, Q06124 (protein) WFHPNITGVEAENLLLTRGVDGSFLARPSKSNPGDFTLSVRRNGAVTHIKIQNTGDYYDLYGGEKFATLGELVQYYMEHHGQLKEKNGDVIELKYPL
pKd: 6.96
--
binder: SHP2 N-SH2, Q06124 (protein) WFHPNITGVEAENLLLTRGVDGSFLARPSKSNPGDFTLSVRRNGAVTHIKIQNTGDYYDLYGGEKFGTLAELVQYYMEHHGQLKEKNGDVIELKYPL
pKd: 6.77
--
binder: SHP2 N-SH2, Q06124 (protein) WFHPNITGVEAENLLLTRGVDGSFLARPSKSNPGDFTLSVRRNGAVTHIKIQNTGDYYDLYGGEKFATLAELVQYYMEHHGQLKEKNGDVVELKYPL
pKd: 7.00
--
binder: SHP2 N-SH2, Q06124 (protein) WFHPNITGVEAENLLLTRGVDGSFLARPSKSNPGDFTLSARRNGAVTHIKIQNTGDYYDLYGGEKFATLAELVQYYMEHHGQLKEKNGDVIELKYPL
pKd: 6.64
--
binder: SHP2 N-SH2, Q06124 (protein) WFHPNITGVEAENLLLTRGVDGSFLARPSKSNPGDFTLSVRRNGAVTHIKIQNTGDYYDLYGGEKFASLAELVQYYMEHHGQLKEKNGDVIELKYPL
pKd: 6.96

This collection of values is drawn from paper PMC7345789.
